assay: Dissociation constant, pKa of the compound; assay type: physicochemical
readout.name: pKa
Lab note: jot down the number only; don't add units.

# compound.structure, pKa
records = [
    ("COc1cccc2[nH]c(C(=O)N[C@@H](CC(C)C)C(=O)N[C@@H](C[C@@H]3CCCNC3=O)C(=O)COC(=O)C3(C(F)(F)F)CCCCC3)cc12", 3.4),
    ("COc1cccc2[nH]c(C(=O)N[C@@H](CC(C)C)C(=O)N[C@@H](C[C@@H]3CCCNC3=O)C(=O)COC(=O)c3c(C(F)(F)F)cc(C)nc3C)cc12", 1.7),
]

Now for a further molecule.
Req: // returns reported pKa for input "COc1cccc2[nH]c(C(=O)N[C@@H](CC(C)C)C(=O)N[C@@H](C[C@@H]3CCCNC3=O)C(=O)COC(=O)C(C)(C)C)cc12"
Resp: 5.03
